Reported values of scaled log2 fold change for individual entries
B1: library; numbered along this chain (parent)
chain: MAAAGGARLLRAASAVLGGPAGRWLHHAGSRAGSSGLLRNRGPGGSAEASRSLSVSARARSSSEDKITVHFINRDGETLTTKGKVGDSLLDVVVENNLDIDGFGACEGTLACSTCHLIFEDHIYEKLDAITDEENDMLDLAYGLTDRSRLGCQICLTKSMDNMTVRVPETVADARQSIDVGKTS

variants of: B1; test: scaled log2 fold change in cell abundance, elesclomol vs control (0 = silent mean, 1 = nonsense mean) (scaled log2 ratio); higher = higher viability under elesclomol (loss of FDX1 cuproptosis function); settings: with HEK293T FDX1 KO; elesclomol 40 nM; glucose 10 mM; 11 days;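 note: variant abundance is its share of total variant reads in each endpoint sample, from next-generation sequencing of the integrated ORF PCR-amplified out of genomic DNA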
The answer should be a number; do not append a unit.

Here are 3 variants together with their reported answers.
mutant-code | result-type | recorded-result
F103Y | scaled log2 fold change | -0.0547
T157A | scaled log2 fold change | 0.871
K126M | scaled log2 fold change | 0.341

For this variant ( `L138E` ), measured scaled log2 fold change is 0.639

For this variant ( `S62G` ), measured scaled log2 fold change is 0.141

For this variant ( `I67F` ), measured scaled log2 fold change is -0.46

For this variant ( `G33D` ), measured scaled log2 fold change is 0.213

For this variant ( `R147P` ), measured scaled log2 fold change is -0.0221
